- MEASUREMENT_NOTES: Selectivity ratio of Ki for human liver cathepsin L to Ki for human erythrocytes calpain-1
We label by threshold. Values of Ratio Ki strictly beneath 90 are Satisfied. Values of 90 and up are Not satisfied.

Take a look at these entries with their results.
NC(=O)C(=O)C(Cc1ccccc1)NC(=O)c1cccnc1-n1ccc(-c2cccc(C(F)(F)F)c2)n1 (centres undefined); Not satisfied
CCN(CC)Cc1ccc(/C=C/c2ccccc2C(=O)NC(Cc2ccccc2)C(=O)C(N)=O)cc1 (centres undefined); Satisfied
NC(=O)C(=O)C(Cc1ccccc1)NC(=O)c1cccnc1-n1ccc(-c2ccc(C(F)(F)F)cc2)n1 (centres undefined); Not satisfied
NC(=O)C(=O)C(Cc1ccccc1)NC(=O)c1cccnc1-n1ccc(Cc2ccccc2)n1 (centres undefined); Satisfied
CC(C)(C)c1ccn(-c2ncccc2C(=O)NC(Cc2ccccc2)C(=O)C(N)=O)n1 (centres undefined); Satisfied

# input Determine if NC(=O)C(=O)C(Cc1ccccc1)NC(=O)c1cccnc1-c1csc(-c2ccccc2)n1 (centres undefined) shows Ratio Ki strictly lower than 90.
# output Not satisfied

# input In plain terms, does NC(=O)C(=O)C(Cc1ccccc1)NC(=O)c1cccnc1-n1cc(-c2ccccc2)cn1 (centres undefined) come in under 90 for Ratio Ki?
# output Satisfied

# input Please indicate whether the reported Ratio Ki of CCCCC(NC(=O)c1cccnc1-n1ccc(-c2ccccc2)n1)C(=O)C(N)=O (centres undefined) is strictly below 90.
# output Satisfied

* * *

- MEASUREMENT_NOTES: Selectivity ratio of Ki for human liver cathepsin L to Ki for human erythrocytes calpain-1
READOUT_KIND: Ratio Ki
Form field (numeric): enter value without unit.

Example entries and their recorded answers appear below.
CCCCC(NC(=O)c1cccnc1-n1cnc(-c2ccccc2)c1)C(=O)C(N)=O (centres undefined); 22
CN1CCC(c2ccn(-c3ncccc3C(=O)NC(Cc3ccccc3)C(=O)C(N)=O)n2)CC1 (centres undefined); 2
NC(=O)C(=O)C(Cc1ccccc1)NC(=O)c1cccnc1-c1coc(-c2ccccc2)n1 (centres undefined); 29
NC(=O)C(=O)C(Cc1ccccc1)NC(=O)c1cccnc1-n1ccc(C2CC2)n1 (centres undefined); 34
NC(=O)C(=O)C(Cc1ccccc1)NC(=O)c1cccnc1-n1ccc(-c2ccc(CN3CCOCC3)cc2)n1 (centres undefined); 5
CCN(CC)Cc1ccc(-c2ccn(-c3ncccc3C(=O)NC(Cc3ccccc3)C(=O)C(N)=O)n2)cc1 (centres undefined); 3
CCCCC(NC(=O)c1cccnc1-c1csc(-c2ccccc2)n1)C(=O)C(N)=O (centres undefined); 13
NC(=O)C(=O)C(Cc1ccccc1)NC(=O)c1ccccc1-c1csc(-c2ccccc2)n1 (centres undefined); 116
NC(=O)C(=O)C(Cc1ccccc1)NC(=O)c1cccnc1-n1ccc(C2CCOCC2)n1 (centres undefined); 56
NC(=O)C(=O)C(Cc1ccccc1)NC(=O)c1ccccc1-n1ccc(-c2ccccc2)n1 (centres undefined); 38

Now for the compound whose Ratio Ki we want.
# input Read off the recorded Ratio Ki for NC(=O)C(=O)C(Cc1ccccc1)NC(=O)c1cccnc1-n1cnc(-c2ccccc2)c1 (centres undefined)
# output 23

* * *

- TGT: Calpain-1 catalytic subunit (Homo sapiens)
- MEASUREMENT_NOTES: Inhibition of human erythrocytes calpain-1 using Suc-Leu-Tyr-AMC as substrate by kinetic fluorescence assay
- MEASUREMENT_CONTEXT: read-out: Ki
Label key: rule met means Ki under 40 nM; rule not met means Ki of 40 nM or more.

Example cases with answers are listed next.
NC(=O)C(=O)C(Cc1ccccc1)NC(=O)c1cccnc1-c1coc(-c2ccccc2)n1 (centres undefined); rule not met
NC(=O)C(=O)C(Cc1ccccc1)NC(=O)c1cccnc1-n1ccc(-c2ccccc2)n1 (centres undefined); rule met
NC(=O)C(=O)C(Cc1ccccc1)NC(=O)c1cccnc1-n1cc2c(n1)CCCC2 (centres undefined); rule not met
NC(=O)C(=O)C(Cc1ccccc1)NC(=O)c1cccnc1-n1ccc(C2CC2)n1 (centres undefined); rule not met
NC(=O)C(=O)C(Cc1ccccc1)NC(=O)c1cccnc1-n1ccc(Cc2ccccc2)n1 (centres undefined); rule met
CC(C)(C)c1ccn(-c2ncccc2C(=O)NC(Cc2ccccc2)C(=O)C(N)=O)n1 (centres undefined); rule not met

Let's switch to this compound now.
# input Is 40 nM strictly greater than the compound's reported Ki? compound: CCN(CC)Cc1ccc(/C=C/c2ccccc2C(=O)NC(Cc2ccccc2)C(=O)C(N)=O)cc1 (centres undefined)
# output rule not met

* * *

- TGT: Calpain-1 catalytic subunit (Homo sapiens) (UniProt P07384)
- Sequence (whole entry): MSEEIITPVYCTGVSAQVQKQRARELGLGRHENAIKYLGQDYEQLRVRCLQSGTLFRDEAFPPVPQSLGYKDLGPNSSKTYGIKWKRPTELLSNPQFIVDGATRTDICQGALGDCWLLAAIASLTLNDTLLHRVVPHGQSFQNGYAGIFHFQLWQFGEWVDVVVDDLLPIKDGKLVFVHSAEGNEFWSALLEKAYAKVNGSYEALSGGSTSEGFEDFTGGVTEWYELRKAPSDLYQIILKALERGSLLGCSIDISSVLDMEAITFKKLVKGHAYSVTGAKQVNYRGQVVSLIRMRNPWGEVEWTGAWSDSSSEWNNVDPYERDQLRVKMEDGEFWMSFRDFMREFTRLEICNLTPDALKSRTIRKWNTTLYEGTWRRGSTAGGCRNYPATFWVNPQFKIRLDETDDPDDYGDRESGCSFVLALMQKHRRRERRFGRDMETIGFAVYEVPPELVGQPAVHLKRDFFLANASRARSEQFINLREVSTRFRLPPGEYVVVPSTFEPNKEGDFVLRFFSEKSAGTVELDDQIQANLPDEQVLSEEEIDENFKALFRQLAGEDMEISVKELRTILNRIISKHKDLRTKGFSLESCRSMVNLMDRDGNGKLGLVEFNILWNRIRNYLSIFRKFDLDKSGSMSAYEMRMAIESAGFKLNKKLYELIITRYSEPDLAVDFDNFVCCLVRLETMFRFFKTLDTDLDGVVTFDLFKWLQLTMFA
- MEASUREMENT_NOTES: Inhibition of human erythrocytes calpain-1 using Suc-Leu-Tyr-AMC as substrate in presence of up to 10 mM glutathione by kinetic fluorescence assay
The source made the active and inactive calls. The rule behind the calls is not given here.
READOUT_KIND: inhibition

NC(=O)C(=O)C(Cc1ccccc1)NC(=O)c1cccnc1-c1nc(-c2ccccc2)cs1 (stereo not drawn); Active
NC(=O)C(=O)C(Cc1ccccc1)NC(=O)c1cccnc1-n1ccc(-c2ccc(C(F)(F)F)cc2)n1 (stereo not drawn); Active
NC(=O)C(=O)C(Cc1ccccc1)NC(=O)c1cccnc1-n1ccc(-c2ccc(CN3CCOCC3)cc2)n1 (stereo not drawn); Active

* * *

- TGT: Cathepsin K (Homo sapiens, UniProt P43235)
- Sequence (P43235 whole entry): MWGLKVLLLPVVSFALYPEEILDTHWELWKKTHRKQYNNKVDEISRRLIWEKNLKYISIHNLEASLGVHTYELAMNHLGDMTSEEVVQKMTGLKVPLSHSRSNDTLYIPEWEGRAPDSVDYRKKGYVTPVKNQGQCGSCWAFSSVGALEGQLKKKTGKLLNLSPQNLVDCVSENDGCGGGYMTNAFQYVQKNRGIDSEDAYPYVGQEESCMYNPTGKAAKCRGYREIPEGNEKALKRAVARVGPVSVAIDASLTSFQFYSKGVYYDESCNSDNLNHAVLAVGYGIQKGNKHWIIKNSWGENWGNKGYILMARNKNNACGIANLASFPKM
READOUT_KIND: pKi
Lab note: report pKi as minus log10 of the concentration in molar units, number only.

# input Fill in pKi for record CCN(CC)Cc1ccc(/C=C/c2ccccc2C(=O)NC(Cc2ccccc2)C(=O)C(N)=O)cc1 (stereo unspecified)
# output 8.74

* * *

- TGT: Calpain-1 catalytic subunit (Rattus norvegicus) (UniProt P97571)
- MEASUREMENT_NOTES: Inhibition of calpain-1 in rat hippocampal slices assessed as prevention of NMDA-induced spectrin cleavage preincubated for 30 mins followed by NMDA addition measured after 5 hrs by Western blot analysis
READOUT_KIND: fIC50 (nM)
Value expressed in nM; do not type the unit.

NC(=O)C(=O)C(Cc1ccccc1)NC(=O)c1cccnc1-n1cc2c(n1)-c1ccccc1OC2 (stereo not given); 65
NC(=O)C(=O)C(Cc1ccccc1)NC(=O)c1cccnc1-n1ccc(-c2ccccc2)n1 (stereo not given); 39

# input Name the recorded fIC50 of NC(=O)C(=O)C(Cc1ccccc1)NC(=O)c1cccnc1-n1ccc(-c2cccc(C(F)(F)F)c2)n1 (stereo not given) , assay system Calpain-1 catalytic subunit (Rattus norvegicus) (UniProt P97571).
# output 155

# input Param request: fIC50 | system Calpain-1 catalytic subunit (Rattus norvegicus) (UniProt P97571) | item NC(=O)C(=O)C(Cc1ccccc1)NC(=O)c1cccnc1-n1cc2ccccc2n1 (stereo not given)
# output 288

# input Give fIC50; test system Calpain-1 catalytic subunit (Rattus norvegicus) (UniProt P97571); compound NC(=O)C(=O)C(Cc1ccccc1)NC(=O)c1cccnc1-n1ccc(-c2ccc(F)cc2)n1 (stereo not given)
# output 41

* * *

- TGT: Calpain-1 catalytic subunit (Rattus norvegicus, UniProt P97571)
- Sequence (P97571 whole entry): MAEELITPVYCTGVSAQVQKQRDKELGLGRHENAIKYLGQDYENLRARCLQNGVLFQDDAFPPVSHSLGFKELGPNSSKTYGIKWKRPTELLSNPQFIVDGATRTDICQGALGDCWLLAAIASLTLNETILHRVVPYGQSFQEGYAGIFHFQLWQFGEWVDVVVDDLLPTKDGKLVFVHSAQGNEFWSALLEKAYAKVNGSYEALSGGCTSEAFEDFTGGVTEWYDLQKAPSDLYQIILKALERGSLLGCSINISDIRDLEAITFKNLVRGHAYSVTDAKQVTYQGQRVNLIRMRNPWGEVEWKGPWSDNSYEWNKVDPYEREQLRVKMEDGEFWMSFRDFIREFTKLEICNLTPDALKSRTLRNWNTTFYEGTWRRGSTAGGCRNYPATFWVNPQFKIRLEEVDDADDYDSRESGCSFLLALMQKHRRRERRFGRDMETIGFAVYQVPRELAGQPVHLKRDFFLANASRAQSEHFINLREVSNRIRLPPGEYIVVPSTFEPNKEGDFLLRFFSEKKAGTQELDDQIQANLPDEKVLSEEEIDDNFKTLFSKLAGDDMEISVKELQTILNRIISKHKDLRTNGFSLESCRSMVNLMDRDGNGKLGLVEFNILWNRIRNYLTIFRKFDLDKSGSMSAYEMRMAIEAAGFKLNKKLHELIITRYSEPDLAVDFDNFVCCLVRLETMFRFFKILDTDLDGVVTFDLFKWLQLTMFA
- MEASUREMENT_NOTES: Inhibition of calpain-1 in rat hippocampal slices assessed as prevention of NMDA-induced spectrin cleavage preincubated for 30 mins followed by NMDA addition measured after 5 hrs by Western blot analysis
Param label: returns 1.0 when IC50 < 1000 nM, returns 0.0 otherwise, including exact equality.

Below, 4 molecules whose answers are already recorded.
NC(=O)C(=O)C(Cc1ccccc1)NC(=O)c1cccnc1-n1ccc(-c2cccc(C(F)(F)F)c2)n1 (stereo unspecified); 0.0
NC(=O)C(=O)C(Cc1ccccc1)NC(=O)c1cccnc1-n1cc2c(n1)-c1ccccc1OC2 (stereo unspecified); 0.0
CCN(CC)Cc1ccc(-c2ccn(-c3ncccc3C(=O)NC(Cc3ccccc3)C(=O)C(N)=O)n2)cc1 (stereo unspecified); 0.0
NC(=O)C(=O)C(Cc1ccccc1)NC(=O)c1cccnc1-n1ccc(-c2ccc(F)cc2)n1 (stereo unspecified); 1.0

Proceed to the following item.
# input is_below(IC50, 1000 nM) for NC(=O)C(=O)C(Cc1ccccc1)NC(=O)c1cccnc1-n1cc2ccccc2n1 (stereo unspecified) ?
# output 0.0

These measurements were taken from ChEMBL document CHEMBL4038338.
